Tested on: Rattus norvegicus
Assay: Percent change from pre-treatment Non HDL-Cholesterol level at 100 mg/Kg after 1 week
Type: functional
Cut-off -50% on Change, inclusive. At or above means fulfilled; below means not fulfilled.

>  <COMPOUND>
CC(C)(CO)CCCCOCCCCC(C)(C)CO

>  <TARGET_SYSTEM>
Rattus norvegicus

>  <CLASSIFICATION>
fulfilled

$$$$
>  <COMPOUND>
CC(C)(CO)CCCCOCCCCC(C)(CO)c1ccccc1 (centres undefined)

>  <TARGET_SYSTEM>
Rattus norvegicus

>  <CLASSIFICATION>
not fulfilled

$$$$
>  <COMPOUND>
CC(C)(CCCCCCCCCCCC(C)(C)C(=O)O)C(=O)O

>  <TARGET_SYSTEM>
Rattus norvegicus

>  <CLASSIFICATION>
not fulfilled

$$$$
>  <COMPOUND>
CC(CO)(CCCOCCCC(C)(CO)c1ccccc1)c1ccccc1 (centres undefined)

>  <TARGET_SYSTEM>
Rattus norvegicus

>  <CLASSIFICATION>
fulfilled

$$$$
>  <COMPOUND>
CC(C)(CCCCOCCCCC(C)(C)COC1CCCCO1)COC1CCCCO1 (centres undefined)

>  <TARGET_SYSTEM>
Rattus norvegicus

>  <CLASSIFICATION>
fulfilled

$$$$
>  <COMPOUND>
CC(C)(CO)CCCCCCCCCC(C)(C)CO

>  <TARGET_SYSTEM>
Rattus norvegicus

>  <CLASSIFICATION>
not fulfilled

$$$$
>  <COMPOUND>
CC(C)(CO)CCCCCCCCCCCC(C)(C)CO

>  <TARGET_SYSTEM>
Rattus norvegicus

>  <CLASSIFICATION>
fulfilled

$$$$
>  <COMPOUND>
CC(C)(CO)CCCCCOCCCCCC(C)(C)CO

>  <TARGET_SYSTEM>
Rattus norvegicus

>  <CLASSIFICATION>
not fulfilled

$$$$
